# assay_explanation: gradient 5% acetonitrile 3 min, to 50% in 2 min, to 85% in 15 min, held 3 min, 100 µL/min
# details: column: Zorbax Extend-C18 2.1 x 50 mm; eluents: water / acetonitrile, 0.1% formic acid

[
  {
    "molecule": "COc1ccc(/C=C2\\Cc3ccccc3C2=O)cc1OC",
    "RP-LC retention time": "892 s"
  },
  {
    "molecule": "CC1CCCN(CC2CCN(S(=O)(=O)Cc3c(F)cccc3Cl)CC2)C1 (stereo unspecified)",
    "RP-LC retention time": "685 s"
  },
  {
    "molecule": "CCc1nnc2ccc(-c3noc(Cc4ccc(C)cc4)n3)cn12",
    "RP-LC retention time": "918 s"
  },
  {
    "molecule": "CCn1cnc(S(=O)(=O)N2CCC(C(=O)NCc3ccc(F)cc3)CC2)c1",
    "RP-LC retention time": "700 s"
  },
  {
    "molecule": "O=C([C@@H]1C[C@H](F)CN1S(=O)(=O)Cc1ccccc1F)N1CCc2ccccc2C1",
    "RP-LC retention time": "919 s"
  },
  {
    "molecule": "COc1cccc(C(=O)NC2(C(F)(F)F)C(=O)N(CC3CCCO3)C3=C2C(=O)CC(C)(C)C3)c1 (stereo unspecified)",
    "RP-LC retention time": "922 s"
  }
]
